test: In vitro Neutral Red cytotoxicity assay, MRC-5; assay type: cell-based, human; details: human, MRC-5 cells (non-cancer fibroblast cell line)
assay.readout: IC50 at 72 h (µg/mL)
Answers are plain numbers, in µg/mL.

>>> number("CC1(C)CCCC2(C)OC(=O)C=C12 (stereo not shown) [Dihydroactinidiolide (1), Dihydroactinidiolide]")
91.3
>>> number("CC(C)(C)c1ccc(O)c(C(C)(C)C)c1 [2,4-di tert butylphenol (5), 2,4-di-tert-butylphenol]")
20
>>> number("Cc1c(C)c2c(c(C)c1O)CC[C@@](C)(CCC[C@H](C)CCC[C@H](C)CCCC(C)C)O2 [α-tocopherol (6), α-tocopherol]")
30.5

Let us move to another entry and its IC50 at 72 h.
Reported IC50 at 72 h for COc1cccc2c1C(=O)c1c(O)c3c(c(O)c1C2=O)C[C@@](O)(C(=O)CO)C[C@@H]3O[C@H]1C[C@H](N)[C@H](O)[C@H](C)O1 [Doxorubicin, reference compound] : what is it?
0.55

meta.source: paper PMC6254274
